Compiled notes: published IC50 values involving UniProtKB Q9H3R0.

// query Which IC50 value is on record for CN(C)CCn1cnc(-c2cc(C(=O)O)ccn2)c1-c1ccc(Cl)c(F)c1 ?
// result ≤ 100 nM

// query What do you get for Cc1cc(Oc2nc(O)c3ccncc3n2)ccc1N(C)c1ccc(C(C)(C)C)cc1 ?
// result 100 to 1000 nM

// query What do you get for CC(C)Oc1ccc(CNc2cnccc2C(=O)O)cc1 ?
// result 100 to 1000 nM

// query What do you get for O=C(O)c1ccncc1NCC1CCCc2cc(C3CCOCC3)ccc21 (centres unmarked) ?
// result 100 to 1000 nM

// query What do you get for O=C(O)c1ccncc1NCc1ccc(Br)cc1 ?
// result ≤ 100 nM
